- Test system: rat hepatocytes
- assay.procedure: Five-day hepatocyte toxicity (PI positive cells)
- Assay type: cell-based
- measurement.parameters: rat hepatocytes, 5-day exposure
value.kind: hepatocyte toxicity, cell death (PI positive cells)

>>> val("O=C1/C(=C/c2ccccc2)C(NC2CCCCC2)c2ccccc21 (stereo not shown)")
"caused cell death"
>>> val("C[n+]1cc2c3c(ccc2c2ccc4cc5c(cc4c21)OCO5)OCO3")
"caused cell death"
>>> val("O=C1C(SCCO)=C(SCCO)C(=O)c2ccccc21")
"caused cell death"
